In this section, each of the compounds is paired with its reported lignoceric acid, lipid as percentage of total fatty acid.
System: ONC-T18
Assay details: Fatty acid production antagonist supplementation of ONC-T18 culture, fatty acid profile by FAME GC-FID
Assay type: cell-based, Thraustochytrium sp. ONC-T18
Condition label: presence of the antagonist; oleic acid without glucose
Protocol: Media containing 25 g/l sea salt and 1 g/l yeast extract was autoclaved at 120° C. for 20 minutes. Sterilized glucose was added to the media at a concentration of 9 g/l. […] The lipids were extracted and derivatized to fatty acid methyl esters (FAME) for gas chromatography analysis (GC). […] The FAMEs were re-suspended in 5 ml of iso-octane and analyzed by GC-FID. […]
Answer format: number, then unit.

// CCC/C(=N\OCC)C1=C(O)CC(CC(C)SCC)CC1=O (stereo not drawn) : lignoceric acid, lipid as percentage of total fatty acid value = 0.00%

// `C/C=C/C/C=C/CCC(=O)[C@H]1O[C@H]1C(N)=O` : lignoceric acid, lipid as percentage of total fatty acid value = 0.00%

// `CCCCCCCC/C=C\CCCCCCCC(=O)O` : lignoceric acid, lipid as percentage of total fatty acid value = 0.00%

// `COc1cc(CNC(=O)CCCC/C=C/C(C)C)ccc1O` : lignoceric acid, lipid as percentage of total fatty acid value = 0.00%

// `CNc1cnn(-c2cccc(C(F)(F)F)c2)c(=O)c1Cl` : lignoceric acid, lipid as percentage of total fatty acid value = 0.00%

Shift focus to the following entry.
// `Cc1ccccc1C(=O)O` : lignoceric acid, lipid as percentage of total fatty acid value = 0.03%

---

Tested on: ONC-T18
Assay details: Fatty acid production antagonist supplementation of ONC-T18 culture, fatty acid profile by FAME GC-FID
Assay type: cell-based, Thraustochytrium sp. ONC-T18
Condition label: presence of the antagonist; oleic acid without glucose
In this section, each of the molecules is paired with its reported margaric acid, lipid as percentage of total fatty acid.
Please respond with the number in % and leave the unit unwritten.

Consider the worked cases shown below.
// `CCCCCCCC/C=C\CCCCCCCC(=O)O` : margaric acid, lipid as percentage of total fatty acid value = 0.28

// `CNc1cnn(-c2cccc(C(F)(F)F)c2)c(=O)c1Cl` : margaric acid, lipid as percentage of total fatty acid value = 1.03

// `C/C=C/C/C=C/CCC(=O)[C@H]1O[C@H]1C(N)=O` : margaric acid, lipid as percentage of total fatty acid value = 0.74

// `COc1cc(CNC(=O)CCCC/C=C/C(C)C)ccc1O` : margaric acid, lipid as percentage of total fatty acid value = 0.19

// CCC/C(=N\OCC)C1=C(O)CC(CC(C)SCC)CC1=O (stereo not drawn) : margaric acid, lipid as percentage of total fatty acid value = 1.49

Others:
// `Cc1ccccc1C(=O)O` : margaric acid, lipid as percentage of total fatty acid value = 2.69

---

System: ONC-T18
Assay details: Fatty acid production antagonist supplementation of ONC-T18 culture, fatty acid profile by FAME GC-FID
Format: cell-based, Thraustochytrium sp. ONC-T18
Condition label: presence of the antagonist; oleic acid without glucose
Decision: eicosatetraenoic acid, lipid as percentage of total fatty acid beneath 0.3% gives 1 (yes); eicosatetraenoic acid, lipid as percentage of total fatty acid meeting or exceeding 0.3% gives 0 (no).

# TODO verify eicosatetraenoic acid, lipid as percentage of total fatty acid < 0.3% strictly for this molecule: `COc1cc(CNC(=O)CCCC/C=C/C(C)C)ccc1O` 1 (yes)

# TODO verify eicosatetraenoic acid, lipid as percentage of total fatty acid < 0.3% strictly for this molecule: CCC/C(=N\OCC)C1=C(O)CC(CC(C)SCC)CC1=O (stereo not drawn) 0 (no)

# TODO verify eicosatetraenoic acid, lipid as percentage of total fatty acid < 0.3% strictly for this molecule: `CNc1cnn(-c2cccc(C(F)(F)F)c2)c(=O)c1Cl` 1 (yes)

Others:
# TODO verify eicosatetraenoic acid, lipid as percentage of total fatty acid < 0.3% strictly for this molecule: `CCCCCCCC/C=C\CCCCCCCC(=O)O` 1 (yes)

# TODO verify eicosatetraenoic acid, lipid as percentage of total fatty acid < 0.3% strictly for this molecule: `C/C=C/C/C=C/CCC(=O)[C@H]1O[C@H]1C(N)=O` 0 (no)

# TODO verify eicosatetraenoic acid, lipid as percentage of total fatty acid < 0.3% strictly for this molecule: `Cc1ccccc1C(=O)O` 0 (no)

---

Test system: ONC-T18
Assay details: Fatty acid production antagonist supplementation of ONC-T18 culture, fatty acid profile by FAME GC-FID
Assay type: cell-based, Thraustochytrium sp. ONC-T18
Condition label: presence of the antagonist; oleic acid without glucose
Decision: eicosapentaenoic acid, lipid as percentage of total fatty acid beneath 1% gives Yes; eicosapentaenoic acid, lipid as percentage of total fatty acid meeting or exceeding 1% gives No.

Consider the worked cases shown below.
# TODO verify eicosapentaenoic acid, lipid as percentage of total fatty acid < 1% strictly for this compound: `Cc1ccccc1C(=O)O` No

# TODO verify eicosapentaenoic acid, lipid as percentage of total fatty acid < 1% strictly for this compound: CCC/C(=N\OCC)C1=C(O)CC(CC(C)SCC)CC1=O (stereo not drawn) Yes

# TODO verify eicosapentaenoic acid, lipid as percentage of total fatty acid < 1% strictly for this compound: `COc1cc(CNC(=O)CCCC/C=C/C(C)C)ccc1O` No

# TODO verify eicosapentaenoic acid, lipid as percentage of total fatty acid < 1% strictly for this compound: `CCCCCCCC/C=C\CCCCCCCC(=O)O` No

Others:
# TODO verify eicosapentaenoic acid, lipid as percentage of total fatty acid < 1% strictly for this compound: `C/C=C/C/C=C/CCC(=O)[C@H]1O[C@H]1C(N)=O` No

# TODO verify eicosapentaenoic acid, lipid as percentage of total fatty acid < 1% strictly for this compound: `CNc1cnn(-c2cccc(C(F)(F)F)c2)c(=O)c1Cl` Yes

---

Tested on: ONC-T18
Assay details: Fatty acid production antagonist supplementation of ONC-T18 culture, fatty acid profile by FAME GC-FID
Assay type: cell-based, Thraustochytrium sp. ONC-T18
Condition label: presence of the antagonist; oleic acid without glucose
In this section, each of the molecules is paired with its reported eicosenoic acid, lipid as percentage of total fatty acid.
Please respond with the number in % and leave the unit unwritten.

Consider the worked cases shown below.
Fill in: ONC-T18 eicosenoic acid, lipid as percentage of total fatty acid for `C/C=C/C/C=C/CCC(=O)[C@H]1O[C@H]1C(N)=O` = 0.19

Fill in: ONC-T18 eicosenoic acid, lipid as percentage of total fatty acid for `CNc1cnn(-c2cccc(C(F)(F)F)c2)c(=O)c1Cl` = 0.02

Fill in: ONC-T18 eicosenoic acid, lipid as percentage of total fatty acid for `CCCCCCCC/C=C\CCCCCCCC(=O)O` = 0.00

Fill in: ONC-T18 eicosenoic acid, lipid as percentage of total fatty acid for CCC/C(=N\OCC)C1=C(O)CC(CC(C)SCC)CC1=O (stereo not drawn) = 0.00

Fill in: ONC-T18 eicosenoic acid, lipid as percentage of total fatty acid for `COc1cc(CNC(=O)CCCC/C=C/C(C)C)ccc1O` = 0.00

Shift focus to the following entry.
Fill in: ONC-T18 eicosenoic acid, lipid as percentage of total fatty acid for `Cc1ccccc1C(=O)O` = 0.14

---

In this section, each of the compounds is paired with its reported heneicosapentaenoic acid, lipid as percentage of total fatty acid.
System: ONC-T18
Assay details: Fatty acid production antagonist supplementation of ONC-T18 culture, fatty acid profile by FAME GC-FID
Type: cell-based, Thraustochytrium sp. ONC-T18
Condition label: presence of the antagonist; oleic acid without glucose
Please respond with the number in % and leave the unit unwritten.

// C/C=C/C/C=C/CCC(=O)[C@H]1O[C@H]1C(N)=O [cerulenin] : heneicosapentaenoic acid, lipid as percentage of total fatty acid value = 1.24

Others:
// COc1cc(CNC(=O)CCCC/C=C/C(C)C)ccc1O [capsaicin] : heneicosapentaenoic acid, lipid as percentage of total fatty acid value = 0.00

// CCC/C(=N\OCC)C1=C(O)CC(CC(C)SCC)CC1=O (stereo not drawn) [sethoxydim] : heneicosapentaenoic acid, lipid as percentage of total fatty acid value = 1.09

// Cc1ccccc1C(=O)O [toluic acid] : heneicosapentaenoic acid, lipid as percentage of total fatty acid value = 0.39

// CNc1cnn(-c2cccc(C(F)(F)F)c2)c(=O)c1Cl [norflurazon] : heneicosapentaenoic acid, lipid as percentage of total fatty acid value = 0.00

// CCCCCCCC/C=C\CCCCCCCC(=O)O [oleic acid] : heneicosapentaenoic acid, lipid as percentage of total fatty acid value = 0.20

---

Tested on: ONC-T18
Assay details: Fatty acid production antagonist supplementation of ONC-T18 culture, fatty acid profile by FAME GC-FID
Type: cell-based, Thraustochytrium sp. ONC-T18
Condition label: presence of the antagonist; oleic acid without glucose
Result type: oleic acid, lipid as percentage of total fatty acid (%)
Please respond with the number in % and leave the unit unwritten.

// COc1cc(CNC(=O)CCCC/C=C/C(C)C)ccc1O [capsaicin] : oleic acid, lipid as percentage of total fatty acid value = 0.00

Others:
// C/C=C/C/C=C/CCC(=O)[C@H]1O[C@H]1C(N)=O [cerulenin] : oleic acid, lipid as percentage of total fatty acid value = 0.29

// CNc1cnn(-c2cccc(C(F)(F)F)c2)c(=O)c1Cl [norflurazon] : oleic acid, lipid as percentage of total fatty acid value = 0.00

// Cc1ccccc1C(=O)O [toluic acid] : oleic acid, lipid as percentage of total fatty acid value = 0.11

// CCCCCCCC/C=C\CCCCCCCC(=O)O [oleic acid] : oleic acid, lipid as percentage of total fatty acid value = 25.36

// CCC/C(=N\OCC)C1=C(O)CC(CC(C)SCC)CC1=O (stereo not drawn) [sethoxydim] : oleic acid, lipid as percentage of total fatty acid value = 0.18
